TEST: Compound was evaluated for the partition coefficients probably at the pH >> 7.2 at the aqueous phase 0.1 N NaOH
RECORDED CONDITIONS: 0.1 N NaOH (aqueous phase)
MEASURE: logD
The answer should be a number; do not append a unit.

For record `Nc1ncc(Cc2ccccc2)c(N)n1` the listed logD is 1.58

* * *

TEST: Compound was evaluated for the partition coefficients probably at the […] at the aqueous phase 0.1 N HCl
Type: physicochemical
RECORDED CONDITIONS: 0.1 N HCl (aqueous phase)
MEASURE: logD
Answer using only a numeral; do not append any unit.

{"columns": ["SAMPLE SMILES", "logD"],
 "data": [
  ["CC(=O)Nc1ccc(Cc2cnc(N)nc2N)cc1", -1.94],
  ["Nc1ncc(Cc2cccc(Cl)c2)c(N)n1", -0.36],
  ["Nc1ncc(Cc2ccc([N+](=O)[O-])cc2)c(N)n1", -1.03],
  ["Cc1cccc(Cc2cnc(N)nc2N)c1", -0.51],
  ["Nc1ncc(Cc2ccccc2)c(N)n1", -1.03],
  ["Nc1ncc(Cc2cccc(OCc3ccccc3)c2)c(N)n1", 0.53],
  ["Nc1ncc(Cc2cccc(F)c2)c(N)n1", -0.8]
]}

Turning now to a further record.
Lookup result for `COc1cccc(Cc2cnc(N)nc2N)c1` ; measured logD: -0.92
